Hey, just so you know, these numbers are from ChEMBL document CHEMBL3877301.

target: Adenosine receptor A1 (Homo sapiens); experiment: Inverse agonist activity at human adenosine A1 receptor expressed in CHO cells assessed as inhibition of cAMP accumulation at 10 uM measured after 150 mins in presence of [3H]cAMP by scintillation counting method relative to control; assay type: functional, cell-based
The molecules listed here are annotated with their inhibition.
Please reply with the bare figure in % and do not write the unit itself.

Consider the worked cases shown below.
[
  {
    "molecule": "Nc1nc(NCCc2ccc(O)cc2)nc2nc(-c3ccco3)nn12 [ZM-241385]",
    "experimental target": "Adenosine receptor A1 (Homo sapiens)",
    "inhibition (%)": 103
  },
  {
    "molecule": "COc1cccc(CNc2nc(N)c3nc(-c4ccco4)sc3n2)c1",
    "experimental target": "Adenosine receptor A1 (Homo sapiens)",
    "inhibition (%)": 104
  },
  {
    "molecule": "Nc1nc(NCc2ccccc2)nc2sc(-c3ccco3)nc12",
    "experimental target": "Adenosine receptor A1 (Homo sapiens)",
    "inhibition (%)": 101
  },
  {
    "molecule": "COc1ccc(CNc2nc(N)c3nc(-c4ccco4)sc3n2)cc1",
    "experimental target": "Adenosine receptor A1 (Homo sapiens)",
    "inhibition (%)": 100
  },
  {
    "molecule": "COc1ccc(CCNc2nc(N)c3nc(-c4ccco4)sc3n2)cc1",
    "experimental target": "Adenosine receptor A1 (Homo sapiens)",
    "inhibition (%)": 93
  }
]

Turning now to a further record.
IN: Request the reported inhibition associated with Nc1nc(NCc2cccc(O)c2)nc2sc(-c3ccco3)nc12
OUT: 96

---

The compounds listed here are annotated with their IC50.
biological target: Adenosine receptor A2a (Homo sapiens, UniProt P29274); test: Antagonist activity against human adenosine A2A receptor expressed in CHO cells assessed as inhibition of CGS21680-stimulated cAMP accumulation measured after 150 mins in presence of [3H]cAMP by scintillation counting method; format: functional, cell-based
Sequence (P29274 whole entry): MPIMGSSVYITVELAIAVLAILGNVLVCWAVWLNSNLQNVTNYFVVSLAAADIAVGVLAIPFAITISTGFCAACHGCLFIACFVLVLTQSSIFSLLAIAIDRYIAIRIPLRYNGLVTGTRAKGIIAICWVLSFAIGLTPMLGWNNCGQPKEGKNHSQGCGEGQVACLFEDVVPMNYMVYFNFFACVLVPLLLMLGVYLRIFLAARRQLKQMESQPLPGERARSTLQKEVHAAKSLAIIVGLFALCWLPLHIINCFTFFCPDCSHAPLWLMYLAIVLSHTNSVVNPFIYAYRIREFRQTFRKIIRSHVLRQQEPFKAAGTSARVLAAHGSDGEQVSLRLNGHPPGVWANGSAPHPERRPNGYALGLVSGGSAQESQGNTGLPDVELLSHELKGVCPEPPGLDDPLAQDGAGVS
Please reply with the bare figure in nM and do not write the unit itself.

Consider the worked cases shown below.
[
  {
    "given smiles": "COc1ccc(CCNc2nc(N)c3nc(-c4ccco4)sc3n2)cc1",
    "IC50 / nM": 31
  },
  {
    "given smiles": "Nc1nc(NCc2ccccc2)nc2sc(-c3ccco3)nc12",
    "IC50 / nM": 18
  },
  {
    "given smiles": "Nc1nc(NCCc2ccc(O)cc2)nc2sc(-c3ccco3)nc12",
    "IC50 / nM": 21
  }
]

Turning now to a further record.
IN: Request the reported IC50 associated with Nc1nc(NCCc2ccccc2)nc2sc(-c3ccco3)nc12
OUT: 16

---

Target: UniProtKB P29275
Sequence (P29275 whole entry): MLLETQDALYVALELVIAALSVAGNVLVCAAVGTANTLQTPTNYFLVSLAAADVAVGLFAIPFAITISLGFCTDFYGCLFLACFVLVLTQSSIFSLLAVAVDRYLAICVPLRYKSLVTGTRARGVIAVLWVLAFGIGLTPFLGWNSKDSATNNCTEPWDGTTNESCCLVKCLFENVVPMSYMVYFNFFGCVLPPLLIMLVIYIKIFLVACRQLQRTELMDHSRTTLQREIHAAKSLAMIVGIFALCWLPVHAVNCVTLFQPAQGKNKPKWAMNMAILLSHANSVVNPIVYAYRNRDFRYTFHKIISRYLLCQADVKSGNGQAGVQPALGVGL
Assay: Inverse agonist activity at human adenosine A2B receptor expressed in CHO cells assessed as inhibition of cAMP accumulation measured after 150 mins in presence of [3H]cAMP by scintillation counting method
test readout: pIC50
# pIC50 = -log10(concentration in molar units)

Consider the worked cases shown below.
[
  {
    "given smiles": "Nc1nc(NCCCc2ccccc2)nc2sc(-c3ccco3)nc12",
    "pIC50": 5.75
  },
  {
    "given smiles": "Nc1nc(NCCc2ccc(O)cc2)nc2sc(-c3ccco3)nc12",
    "pIC50": 6.32
  },
  {
    "given smiles": "Nc1nc(NCCc2ccccc2)nc2sc(-c3ccco3)nc12",
    "pIC50": 6.41
  },
  {
    "given smiles": "COc1ccc(CCNc2nc(N)c3nc(-c4ccco4)sc3n2)cc1OC",
    "pIC50": 7.02
  },
  {
    "given smiles": "Nc1nc(NCCc2ccc(O)c(O)c2)nc2sc(-c3ccco3)nc12",
    "pIC50": 7.74
  },
  {
    "given smiles": "Nc1nc(NCCc2cccc(O)c2)nc2sc(-c3ccco3)nc12",
    "pIC50": 7.60
  },
  {
    "given smiles": "COc1ccc(CCNc2nc(N)c3nc(-c4ccco4)sc3n2)cc1",
    "pIC50": 6.26
  },
  {
    "given smiles": "Nc1nc(Nc2ccccc2)nc2sc(-c3ccco3)nc12",
    "pIC50": 6.20
  }
]

IN: Request the reported pIC50 associated with Nc1nc(NCc2ccccc2)nc2sc(-c3ccco3)nc12
OUT: 7.49

IN: Request the reported pIC50 associated with COc1cccc(CCNc2nc(N)c3nc(-c4ccco4)sc3n2)c1
OUT: 7.33
